The origin of these recorded values is patent US12351581B2.

Biological target: FGFR2 (Homo sapiens, UniProt P21802)
Construct: biochemical assays using purified intracellular domains of the respective isoforms; purchased Carna Bioscience 08-134
Sequence (P21802 399-821 limits assumed): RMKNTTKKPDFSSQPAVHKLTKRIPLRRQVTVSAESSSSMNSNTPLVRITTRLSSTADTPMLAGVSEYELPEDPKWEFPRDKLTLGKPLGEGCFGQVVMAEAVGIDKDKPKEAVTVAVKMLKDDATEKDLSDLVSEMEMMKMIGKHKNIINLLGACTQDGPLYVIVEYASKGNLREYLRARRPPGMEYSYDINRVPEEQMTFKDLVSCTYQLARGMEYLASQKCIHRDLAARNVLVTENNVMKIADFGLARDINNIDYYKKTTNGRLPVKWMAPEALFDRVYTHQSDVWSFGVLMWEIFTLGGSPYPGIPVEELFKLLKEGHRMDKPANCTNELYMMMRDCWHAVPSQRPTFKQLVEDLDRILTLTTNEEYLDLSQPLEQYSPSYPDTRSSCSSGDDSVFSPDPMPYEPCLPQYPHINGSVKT
Experiment: FGFR wild type enzyme assay (HTRF KinEASE-TK)
Type: biochemical
Conditions: Table 3; ATP 2 uM; read-out: FGFR2 Enz
metric_name: IC50 (nM)
Give a bare numeral; the unit nM is implied.

Here's what some known entries look like.
In [3]: df
Out[3]:
                                        mol  metric_name  observed_measurement
0  C[C@@H](Oc1cc(-c2cnn(C)c2N)cn2ncc(C#N)c12)c1ccc(F)cn1         IC50                     1
1  Cc1c(-c2cc(O[C@H](C)c3ccc(F)cn3)c3c(C#N)cnn3c2)cnn1[C@@H]1CCC[C@@H](O)C1         IC50                     1
2  Cc1c(-c2cc(O[C@H](C)c3cccnc3)c3c(C#N)cnn3c2)cnn1[C@H]1CC[C@H](O)CC1         IC50                   0.4
3  C[C@@H](Oc1cc(-c2cnn([C@H]3CC[C@H](O)CC3)c2N)cn2ncc(C#N)c12)c1ccc(F)cn1         IC50                   0.4

Next, consider the following compound.
The compound listed as Cc1nn(C2CCNCC2)c(C)c1-c1cc(O[C@H](C)c2ccccn2)c2c(C#N)cnn2c1 shows IC50 equal to 1
